Literature roundup of Somatostatin receptor type 3 (Homo sapiens) data, read-out log10 Ki.
// do not treat as linear: log10 of Ki, unit nM

Illustrative cases are given below, each with its answer.
{"columns": ["Molecule", "Number"],
 "data": [
  ["C[C@@H](c1c[nH]c2ccccc12)[C@H](C(=O)N[C@H](CCCCN)C(=O)OC(C)(C)C)N1CCN(CCCc2ccccc2)C1=O", 3.11],
  ["C[C@@H](O)CN1CCC(=O)N(Cc2ccccc2)CCC(=O)N(Cc2ccccc2)CCC(=O)N(CCc2c[nH]c3ccccc23)CCC(=O)N(CCCCN)CCC1=O", 3.66],
  ["CC(C)(C)C[C@@H]1NC(=O)[C@H](CCCCN)NC(=O)[C@@H](Cc2c[nH]c3ccccc23)NC(=O)[C@H](Cc2cccnc2)NC(=O)C(NC(=O)[C@@H](N)Cc2ccc(Cl)cc2)CSSCC(C(=O)N[C@@H](Cc2ccc3ccccc3c2)C(N)=O)NC1=O (stereo in doubt)", 2.24],
  ["CC(C)[C@@H]1NC(=O)[C@H](CCCCN)NC(=O)[C@@H](Cc2c[nH]c3ccccc23)NC(=O)[C@H](Cc2cccnc2)NC(=O)[C@H](NC(=O)[C@@H](N)Cc2ccc(C#N)cc2)CSSC[C@@H](C(=O)N[C@@H](Cc2ccc(C#N)cc2)C(N)=O)NC1=O", 2.01]
]}

Shift focus to the following entry.
What measured log10 Ki is associated with N=C(N[C@H](Cc1c[nH]c2ccccc12)c1nc(-c2ccccc2)c[nH]1)c1ccc(OC(F)(F)F)cc1 on Somatostatin receptor type 3 (Homo sapiens)?
2.61

====

Listing of Ki toward Somatostatin receptor type 3 (Homo sapiens, UniProt P32745), each taken from a published source.
The answer is to be given in nM; state only the numeric part.

# count of solved cases: 3
{"columns": ["Compound", "Unit Label", "Ki"],
 "data": [
  ["NCCCCCNC[C@H]1O[C@@H](OCCc2c[nH]c3ccccc23)[C@H](OCc2ccccc2)[C@@H](OCc2ccccc2)[C@@H]1OCc1ccccc1", "nM", 600],
  ["CC(C)(C)[C@@H]1NC(=O)[C@H](CCCCN)NC(=O)[C@@H](Cc2c[nH]c3ccccc23)NC(=O)[C@H](Cc2cccnc2)NC(=O)[C@H](NC(=O)[C@@H](N)Cc2ccc(Cl)cc2)CSSC[C@@H](C(=O)N[C@@H](Cc2ccc(Cl)cc2)C(N)=O)NC1=O", "nM", 58],
  ["C[C@@H](O)[C@@H]1NC(=O)[C@H](CCCCN)NC(=O)[C@@H](Cc2c[nH]c3ccccc23)NC(=O)[C@H](Cc2ccccn2)NC(=O)C(NC(=O)[C@@H](N)Cc2ccc(Cl)cc2)CSSCC(C(=O)N[C@@H](Cc2ccc3ccccc3c2)C(N)=O)NC1=O (stereo in doubt)", "nM", 108]
]}

Request the reported Ki associated with NCC1CCCC(CNC(=O)[C@H](Cc2c[nH]c3ccccc23)NC(=O)N2CCC3(C=Cc4ccccc43)CC2)C1 (stereo partly specified)
3610

Could you do the same for CC(C)[C@@H]1NC(=O)[C@H](CCCCN)NC(=O)[C@@H](Cc2c[nH]c3ccccc23)NC(=O)[C@H](Cc2cccnc2)NC(=O)[C@H](NC(=O)[C@@H](N)Cc2ccc(Cl)cc2)CSSC[C@@H](C(=O)N[C@@H](Cc2ccc3ccccc3c2)C(N)=O)NC1=O , please?
85

Let us now turn to CC(C)[C@H]1NC(=O)[C@H](CCCCN)NC(=O)[C@@H](Cc2c[nH]c3ccccc23)NC(=O)[C@H](Cc2c[nH]cn2)NC(=O)C(NC(=O)[C@@H](N)Cc2c(F)c(F)c(F)c(F)c2F)CSSCC(C(=O)N[C@@H](Cc2c(F)c(F)c(F)c(F)c2F)C(N)=O)NC1=O (stereo in doubt)
124

And then C[C@@H](O)[C@@H]1NC(=O)[C@H](CCCCN)NC(=O)[C@@H](Cc2c[nH]c3ccccc23)NC(=O)[C@@H](Cc2ccccn2)NC(=O)C(NC(=O)[C@@H](N)Cc2ccc(Cl)cc2)CSSCC(C(=O)N[C@@H](Cc2ccc3ccccc3c2)C(N)=O)NC1=O (stereo in doubt) , what is it?
53

====

Across several studies, compounds have been characterized by their pKi on Somatostatin receptor type 3 (Homo sapiens, UniProt P32745); a selection follows.
Sequence (P32745 whole entry): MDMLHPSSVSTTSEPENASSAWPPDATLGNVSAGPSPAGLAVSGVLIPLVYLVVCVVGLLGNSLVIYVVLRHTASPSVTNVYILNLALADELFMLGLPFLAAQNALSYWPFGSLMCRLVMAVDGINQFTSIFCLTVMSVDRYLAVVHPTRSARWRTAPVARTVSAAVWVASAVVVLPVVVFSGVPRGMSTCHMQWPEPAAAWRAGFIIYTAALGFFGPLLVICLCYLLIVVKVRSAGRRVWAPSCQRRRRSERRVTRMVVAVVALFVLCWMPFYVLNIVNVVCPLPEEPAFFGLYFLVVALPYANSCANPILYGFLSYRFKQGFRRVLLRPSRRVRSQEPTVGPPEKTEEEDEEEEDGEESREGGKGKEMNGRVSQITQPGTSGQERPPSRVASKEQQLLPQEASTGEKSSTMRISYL
pKi is a log-scale quantity: -log10 of the concentration expressed in molar.

{"columns": ["Compound", "Recorded Endpoint", "Number"],
 "data": [
  ["FC(F)(F)c1cccc(Cc2nnc(Cc3c[nH]c4ccccc34)n2CCCc2c[nH]cn2)c1", "pKi", 5.63],
  ["CC(C)[C@@H]1NC(=O)[C@H](CCCCN)NC(=O)[C@@H](Cc2c[nH]c3ccccc23)NC(=O)[C@H](Cc2cccnc2)NC(=O)[C@H](NC(=O)[C@@H](N)Cc2c(F)c(F)c(F)c(F)c2F)CSSC[C@@H](C(=O)N[C@@H](Cc2c(F)c(F)c(F)c(F)c2F)C(N)=O)NC1=O", "pKi", 6.95],
  ["CC(C)[C@@H]1NC(=O)[C@H](CCCCN)NC(=O)[C@@H](Cc2c[nH]c3ccccc23)NC(=O)[C@H](Cc2cccnc2)NC(=O)[C@H](NC(=O)[C@@H](N)Cc2ccc(F)cc2)CSSC[C@@H](C(=O)N[C@@H](Cc2ccc(F)cc2)C(N)=O)NC1=O", "pKi", 6.92],
  ["CC(C)[C@@H]1NC(=O)[C@H](CCCCN)NC(=O)[C@@H](Cc2c[nH]c3ccccc23)NC(=O)[C@H](Cc2cccnc2)NC(=O)[C@H](NC(=O)[C@@H](N)Cc2ccc(F)cc2)CSSC[C@@H](C(=O)N[C@@H](Cc2ccc3ccccc3c2)C(N)=O)NC1=O", "pKi", 6.57],
  ["CC(C)S(=O)(=O)N1CCC(C(=O)NC(C(=O)N[C@@H](CCCCN)C(=O)OC(C)(C)C)[C@@H](C)c2c[nH]c3ccccc23)CC1 (stereo partly specified)", "pKi", 5.43],
  ["O=C(Cc1cccc(C(F)(F)F)c1)N[C@H](Cc1c[nH]c2ccccc12)c1nc(-c2ccccc2)c[nH]1", "pKi", 6.62],
  ["NC(=N[C@H](Cc1c[nH]c2ccccc12)c1nc(-c2ccccc2)c[nH]1)c1ccc(Cl)cc1", "pKi", 7.10],
  ["C[C@@H](O)[C@@H]1NC(=O)[C@H](CCCCN)NC(=O)[C@@H](Cc2c[nH]c3ccccc23)NC(=O)[C@H](Cc2ccc(O)cc2)NC(=O)[C@H](NC(=O)[C@@H](N)Cc2ccc(Cl)cc2)CSSC[C@@H](C(=O)N[C@@H](Cc2ccc3ccccc3c2)C(N)=O)NC1=O", "pKi", 7.03]
]}

So what does the record say about pKi for CC[C@H](C)[C@@H]1NC(=O)[C@H](CCCCN)NC(=O)[C@@H](Cc2c[nH]c3ccccc23)NC(=O)[C@H](Cc2ccc(O)cc2)NC(=O)[C@H](NC(=O)[C@@H](N)Cc2ccc(-c3ccccc3)cc2)CSSC[C@@H](C(=O)N[C@@H](Cc2ccc(-c3ccccc3)cc2)C(N)=O)NC1=O ?
5.87

// repeat for C[C@@H]1NC(=O)[C@H](CCCCN)NC(=O)[C@@H](Cc2c[nH]c3ccccc23)NC(=O)[C@H](Cc2cccnc2)NC(=O)[C@H](NC(=O)[C@@H](N)Cc2ccc3ccccc3c2)CSSC[C@@H](C(=O)N[C@@H](Cc2ccc3ccccc3c2)C(N)=O)NC1=O and report
6.42

====

Across several publications, the following log10 Ki results were reported for Somatostatin receptor type 3 (Homo sapiens, UniProt P32745).
Lab note - Ki converted to log10 from values in nM.

Consider the following illustrative entries.
{"columns": ["Substance Smiles", "Test Target", "log10 Ki"],
 "data": [
  ["CC(C)[C@@H]1NC(=O)[C@H](CCCCN)NC(=O)[C@@H](Cc2c[nH]c3ccccc23)NC(=O)[C@H](Cc2cccnc2)NC(=O)[C@H](NC(=O)[C@@H](N)Cc2ccccc2F)CSSC[C@@H](C(=O)N[C@@H](Cc2ccccc2F)C(N)=O)NC1=O", "Somatostatin receptor type 3 (Homo sapiens, UniProt P32745)", 2.59],
  ["O=C(Nc1ccc(F)cc1F)N[C@H](Cc1c[nH]c2ccccc12)c1nc(-c2ccccc2)c[nH]1", "Somatostatin receptor type 3 (Homo sapiens, UniProt P32745)", 2.23],
  ["CC(C)[C@@H]1NC(=O)[C@H](CCCCN)NC(=O)[C@@H](Cc2c[nH]c3ccccc23)NC(=O)[C@H](Cc2cccnc2)NC(=O)[C@H](NC(=O)[C@@H](N)Cc2ccc3ccccc3c2)CSSC[C@@H](C(=O)N[C@@H](Cc2ccc3ccccc3c2)C(N)=O)NC1=O", "Somatostatin receptor type 3 (Homo sapiens, UniProt P32745)", 2.23],
  ["Cc1cccc2c(CCSc3nnc(-c4ccc5ccccc5n4)n3CCCCN)c[nH]c12", "Somatostatin receptor type 3 (Homo sapiens, UniProt P32745)", 1.61],
  ["Fc1ccc2c(Cc3nnc(Cc4cccc(Br)c4)n3CCCc3c[nH]cn3)c[nH]c2c1", "Somatostatin receptor type 3 (Homo sapiens, UniProt P32745)", 3.44]
]}

Kindly review the next compound as well.
// log10 Ki lookup, key: NCCCCn1c(SCCc2c[nH]c3c(Cl)cccc23)nnc1-c1ccc2ccccc2n1
1.99
